targetOrTestSystem: Follistatin (Homo sapiens) (UniProt P19883)
Sequence (P19883 whole entry, looked up): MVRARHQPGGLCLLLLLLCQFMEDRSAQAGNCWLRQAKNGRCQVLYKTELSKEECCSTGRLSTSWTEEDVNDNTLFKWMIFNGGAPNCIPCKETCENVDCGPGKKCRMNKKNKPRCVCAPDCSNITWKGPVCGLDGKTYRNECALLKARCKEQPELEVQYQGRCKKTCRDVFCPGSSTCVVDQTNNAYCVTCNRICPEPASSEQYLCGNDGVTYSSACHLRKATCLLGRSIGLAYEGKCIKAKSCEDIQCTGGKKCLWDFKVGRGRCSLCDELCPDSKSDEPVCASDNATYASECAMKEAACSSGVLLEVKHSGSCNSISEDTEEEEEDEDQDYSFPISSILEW
experimentSummary: FST protein binding to printed compounds – biochemical, small-molecule microarray, 635/667 nm fluorescence, primary screen (AID 1132)
runConditions: 635 nm fluorescence, higher = more signal
// label = YES if composite z-score is not less than 1, otherwise NO

# bool: composite z-score of Cc1ccc(S[C@]2(C(=O)O)CC(=O)N(Cc3ccccc3C(F)(F)F)[C@@H]2c2ccc(CO)cc2)cc1 >= 1
NO

# bool: composite z-score of CN(C)CCCNC(=O)[C@@]1(Cc2ccccc2I)c2ccccc2C(=O)N(Cc2ccccc2Cl)[C@H]1c1ccc(CO)cc1 >= 1
NO

# bool: composite z-score of COC(=O)C(CC#Cc1ccc2c(c1)[C@]1(C(=O)N2)[C@H](C(=O)N2CCc3cc(OC)c(OC)cc3C2)[C@H]2C(=O)O[C@H](c3ccccc3)[C@H](c3ccccc3)N2[C@@H]1c1ccc(O)cc1)C(=O)OC >= 1
YES

# bool: composite z-score of COc1ccc([Si](C)(C)[C@@H]2[C@@H](CCO)O[C@]3(C(=O)N(Cc4cccc(N5C(=O)COc6ccccc65)c4)c4ccccc43)[C@H]2C)cc1 >= 1
NO

# bool: composite z-score of [N-]=[N+]=NCc1ccccc1C[C@@]1(C(=O)NCCN2CCOCC2)N=C(c2ccc(OCCCO)cc2)O[C@@H]1c1ccccc1CN=[N+]=[N-] >= 1
YES

# bool: composite z-score of COCCOC(=O)N1C(=O)[C@@]2(c3cc(C#CCNC(N)=O)ccc31)[C@H](C(N)=O)[C@H]1C(=O)O[C@H](c3ccccc3)[C@H](c3ccccc3)N1[C@@H]2c1ccc(OCCO)cc1 >= 1
YES

* * *

targetOrTestSystem: Epidermal growth factor receptor (Homo sapiens) (UniProt P00533)
Sequence (P00533 whole entry, looked up): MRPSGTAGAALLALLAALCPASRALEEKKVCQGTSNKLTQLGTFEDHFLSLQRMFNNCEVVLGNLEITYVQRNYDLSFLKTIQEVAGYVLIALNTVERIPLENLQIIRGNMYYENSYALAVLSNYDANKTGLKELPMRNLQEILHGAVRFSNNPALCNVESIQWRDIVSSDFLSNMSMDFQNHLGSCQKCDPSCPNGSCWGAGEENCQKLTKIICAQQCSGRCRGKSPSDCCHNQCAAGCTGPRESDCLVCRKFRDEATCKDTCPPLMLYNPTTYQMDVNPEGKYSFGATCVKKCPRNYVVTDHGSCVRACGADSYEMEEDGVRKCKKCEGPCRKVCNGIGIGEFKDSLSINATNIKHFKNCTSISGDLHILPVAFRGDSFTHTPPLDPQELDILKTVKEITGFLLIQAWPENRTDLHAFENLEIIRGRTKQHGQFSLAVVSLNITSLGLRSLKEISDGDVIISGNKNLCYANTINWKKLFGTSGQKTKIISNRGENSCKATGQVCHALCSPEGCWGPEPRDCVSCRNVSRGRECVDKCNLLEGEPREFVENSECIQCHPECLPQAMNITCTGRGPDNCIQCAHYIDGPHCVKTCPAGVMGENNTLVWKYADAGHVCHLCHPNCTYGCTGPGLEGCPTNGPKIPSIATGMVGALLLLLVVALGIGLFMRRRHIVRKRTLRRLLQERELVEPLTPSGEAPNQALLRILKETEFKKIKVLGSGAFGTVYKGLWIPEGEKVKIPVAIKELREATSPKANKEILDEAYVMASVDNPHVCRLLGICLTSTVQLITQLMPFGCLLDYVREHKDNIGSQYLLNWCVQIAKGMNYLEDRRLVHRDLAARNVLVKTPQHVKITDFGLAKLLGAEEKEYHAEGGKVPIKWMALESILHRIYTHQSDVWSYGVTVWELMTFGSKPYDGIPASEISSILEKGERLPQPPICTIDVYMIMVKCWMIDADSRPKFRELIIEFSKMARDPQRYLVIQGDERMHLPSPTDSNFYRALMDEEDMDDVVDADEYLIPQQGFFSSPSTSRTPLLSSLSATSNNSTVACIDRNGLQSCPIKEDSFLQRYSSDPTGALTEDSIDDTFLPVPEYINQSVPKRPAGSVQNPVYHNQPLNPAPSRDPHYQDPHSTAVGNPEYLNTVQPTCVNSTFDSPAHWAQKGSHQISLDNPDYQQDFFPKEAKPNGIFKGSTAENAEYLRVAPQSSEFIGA
experimentSummary: compounds binding epidermal growth factor receptor – biochemical, small-molecule microarray, 635 nm fluorescence, primary screen (AID 1104);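 also: score merges 667 nm emission intensity with spot signal to noise over triplicate slides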
runConditions: EGFR binding, higher = more signal
Please respond with reported composite z-score for every item in the list.
The answer should be a number; do not append a unit.

The value of composite z-score measured for the compound CC(C)c1ccc(NN2C(C(O)c3ccccn3)C=CC3C(=O)N(c4ccccc4)C(=O)C32)cc1 (configuration not stated) turned out to be 0.69

The value of composite z-score measured for the compound O=C1OCC=C[C@H]2OC34C=CCN(CCN5CCOCC5)C(=O)[C@H]3N(CCCCCO)C(=O)[C@@H]4[C@@H]12 (some centres not stated) turned out to be -0.411

The value of composite z-score measured for the compound COc1cccc(C)c1NC(=O)O[C@H]1[C@H](OC(=O)Nc2ccccc2)[C@H](OC(=O)Nc2ccccc2)[C@@H](OC)O[C@@H]1CO turned out to be -0.0372

The value of composite z-score measured for the compound [N-]=[N+]=NCc1ccccc1[C@H]1OC(c2ccc(OCCCO)cc2)=N[C@@]1(Cc1ccccc1N=[N+]=[N-])C(=O)NCCN1CCOCC1 turned out to be 0.558

The value of composite z-score measured for the compound OCc1ccc(-c2cc[n+](Cc3cccc(OC(F)(F)F)c3)cc2)cc1 turned out to be 1.33

The value of composite z-score measured for the compound CN(C)C(=O)[C@@]1(CCC(=O)OC(C)(C)C)COC(c2ccc(OCCCO)cc2)=N1 turned out to be -0.785

The value of composite z-score measured for the compound CCOC(=O)C[C@H]1[C@H](OC(=O)Cc2ccc3c(c2)OCO3)[C@@H](NC(=O)c2ccccc2)c2cc(OCCCO)ccc2N1C(=O)c1ccc2ccccc2n1 turned out to be 0.548

The value of composite z-score measured for the compound O=C1C2C=CC(C(O)c3cccc4ccccc34)N(Nc3ccccc3)C2C(=O)N1c1ccccc1 (configuration not stated) turned out to be 0.346

The value of composite z-score measured for the compound Cc1ccc(-c2cccc(=O)o2)cc1 turned out to be 0.115

The value of composite z-score measured for the compound COC(=O)[C@@]1(Cc2ccc(OC)cc2)[C@H]2c3cc(C(=O)N(C)C)n(Cc4cc(C)n(C)n4)c3C[C@H]2CN1C(=O)c1ccccc1 turned out to be -0.232

The value of composite z-score measured for the compound COc1ccc([Si](C)(C)[C@@H]2[C@@H](CCO)O[C@]3(C(=O)N(Cc4cccc(N5C(=O)COc6ccccc65)c4)c4ccccc43)[C@H]2C)cc1 turned out to be -0.0851

The value of composite z-score measured for the compound CC(C)N1C(=O)c2ccccc2[C@](C)(C(=O)O)[C@@H]1c1ccc(CO)cc1 turned out to be -1.35

The value of composite z-score measured for the compound Cc1ccc(S[C@]2(C(=O)O)CC(=O)N(Cc3ccccc3C(F)(F)F)[C@@H]2c2ccc(CO)cc2)cc1 turned out to be -1.01

The value of composite z-score measured for the compound COCCOC(=O)N1C(=O)[C@@]2(c3cc(C#CCNC(N)=O)ccc31)[C@H](C(N)=O)[C@H]1C(=O)O[C@H](c3ccccc3)[C@H](c3ccccc3)N1[C@@H]2c1ccc(OCCO)cc1 turned out to be 0.793

The value of composite z-score measured for the compound CN(C)CCCC[C@@H]1NC(=O)[C@H]2C[C@@H](C(=O)NCCCCCCNC(=O)CS)[C@@H](c3ccc(O)cc3)N2C1=O turned out to be 0.0264

The value of composite z-score measured for the compound [N-]=[N+]=Nc1ccccc1[C@H]1OC(c2ccc(OCCCO)cc2)=N[C@@]1(Cc1ccccc1)C(=O)NCc1ccccc1 turned out to be -0.0565

The value of composite z-score measured for the compound C=CCNC(=O)[C@H]1[C@@H]2C(=O)O[C@@H](c3ccccc3)[C@@H](c3ccccc3)N2[C@@H](c2ccc(O)cc2)[C@]12C(=O)N(C(=O)OCCOC)c1ccc(C#CC3(O)CCCCCC3)cc12 turned out to be 0.228
